Literature roundup of PIK3CG (human) data, read-out pIC50.
Give bare numbers, as −log10 of the molar value.

Illustrative cases are given below, each with its answer.
{"Compound String": "CC[C@H](Nc1ncnc2ccc(C#N)cc12)c1nc2cccc(-c3cnc(N)nc3)c2c(=O)n1C1CC1", "Target Or Test System": "PIK3CG (human)", "pIC50": 6.43}
{"Compound String": "COc1ccc(-c2nn([C@@H](C)c3cc4ccccc4c(=O)n3-c3ccccc3)c3ncnc(N)c23)cc1NS(C)(=O)=O", "Target Or Test System": "PIK3CG (human)", "pIC50": 6.69}
{"Compound String": "Cn1cc(/C=C2\\Oc3ccc(NC(=O)Nc4cccnc4)cc3C2=O)c2c(N3CCC(C(=O)N4CC5CCC(C4)O5)CC3)ccnc21", "Target Or Test System": "PIK3CG (human)", "pIC50": 5.55}

Req: Query (compound): "O=C(NCCO)Nc1ccc(-c2nc(N3CCOCC3)c3ccn(CC(F)(F)F)c3n2)cc1" ; field requested: pIC50
Resp: 6.41

----------
Let's look at some pIC50 data for UniProt P48736 that I collected from the literature.
Answers are plain numbers, as −log10 of the molar value.

Sample records with pIC50:
{"Compound String": "CN(C)C1CCN(C(=O)c2ccc(NC(=O)Nc3ccc(-c4nc(N5CCOCC5)c5ccn(CC(F)(F)F)c5n4)cc3)cc2)CC1", "pIC50": 7.57}
{"Compound String": "Cn1cc(/C=C2\\Oc3cc(O)cc(O)c3C2=O)c2c(N3CCCC3)ccnc21", "pIC50": 6.62}
{"Compound String": "CCC[C@H](Nc1ncnc2ccc(C#N)cc12)c1nc2cccc(-c3cnc(C)nc3)c2c(=O)n1-c1ccccc1", "pIC50": 5.94}
{"Compound String": "CC[C@H](Nc1ncnc2[nH]ccc12)c1nc2cccc(F)c2c(=O)n1-c1ccccc1", "pIC50": 5.92}
{"Compound String": "O=CCn1ccc2c(N3CCOCC3)nc(-c3ccc(NC(=O)Nc4ccncc4)cc3)nc21", "pIC50": 8.15}

Provide pIC50 values for the following items, in order.
1. CCn1cc(/C=C2\Oc3ccc(NC(=O)Nc4cccnc4)cc3C2=O)c2c(-c3ccc(C(=O)N4CCN(CCO)CC4)cc3)ccnc21
2. Cn1cc(/C=C2\Oc3cccc(NC(=O)C(C)(C)C)c3C2=O)c2c(-c3ccccc3)ccnc21
3. Cn1ncc2c(Nc3ccc(C(N)=O)cc3)nc(-c3ccoc3)nc21
4. C=CC(=O)NC1CCN(S(=O)(=O)c2ccc(Nc3ncc4c(n3)N(C)c3ccc(C)cc3C(=O)N4C)cc2)CC1
5. Cc1cnccc1CN(C)C(=O)C1CCN(c2ccnc3c2c(/C=C2\Oc4ccc(NC(=O)Nc5cccnc5)cc4C2=O)cn3C)CC1

Resp:
1: 5.63; 2: 5.74; 3: 5.77; 4: 6.91; 5: 5.60

----------
Compiled record: pIC50 values for PIK3CG (human) (UniProt P48736) across several sources.
pIC50: −log10 of the molar value.

Would you please look over these solved cases?
{"Compound String": "C[C@H](NC(=O)c1c(N)nn2cccnc12)c1cc2cccc(Cl)c2c(=O)n1C1CCCCC1", "pIC50": "5.00 to 6.00"}
{"Compound String": "CNCCN(C)C(=O)c1ccc(NC(=O)Nc2ccc(-c3nc(N4CCOCC4)c4ccn(CC(F)(F)F)c4n3)cc2)cc1", "pIC50": 7.80}
{"Compound String": "C[C@H](Nc1ncnc2ccnn12)c1cc2cccc(Cl)c2c(C(=O)N2CCOCC2)n1", "pIC50": "5.00 to 6.00"}
{"Compound String": "CC(=O)Nc1nc(C)c(-c2ccc(Cl)c(S(=O)(=O)NCCN[C@@H](CC(C)C)C(=O)OC3CCCC3)c2)s1", "pIC50": "< 6.00"}
{"Compound String": "CN(C)C(=O)C1CCN(c2ccnc3c2c(/C=C2\\Oc4ccc(NC(=O)Nc5ccc(N6CCOCC6)cc5)cc4C2=O)cn3C)CC1", "pIC50": 5.22}
{"Compound String": "Cc1cccc2cc([C@H](C)Nc3ncnc4cccnc34)nc(CCN3CCOCC3)c12", "pIC50": "> 5.00"}

Field: next compound
Req: Need pIC50 of "CN1CCN(C(=O)Cn2ncc3c(-c4cnc(N)nc4)nc(N4CCOCC4)nc32)CC1" , thanks.
Resp: 5.00 to 7.00

----------
pIC50: −log10 of the molar value.
Listing of pIC50 toward PIK3CG (human) (UniProt P48736), each taken from a published source.

Examples with their reported pIC50 follow.
{"Compound String": "NC(=O)c1ccc(Nc2nc(-c3ccccc3)nc3c2cnn3C2CCN(Cc3ccccc3)CC2)cc1", "Target Or Test System": "PIK3CG (human) (UniProt P48736)", "pIC50": 5.15}
{"Compound String": "COc1ccc2c(n1)c(C=C1Oc3cc(O)cc(O)c3C1=O)cn2C", "Target Or Test System": "PIK3CG (human) (UniProt P48736)", "pIC50": "< 5.00"}
{"Compound String": "O=C(NO)c1cnc(N2CCN(Cc3cc4nc(-c5cccc6[nH]ncc56)nc(N5CCOCC5)c4s3)CC2)nc1", "Target Or Test System": "PIK3CG (human) (UniProt P48736)", "pIC50": "> 7.00"}
{"Compound String": "Cc1ccc2c(c1)C(=O)N(C)c1cnc(Nc3cccc(S(N)(=O)=O)c3)nc1N2C", "Target Or Test System": "PIK3CG (human) (UniProt P48736)", "pIC50": 7.12}
{"Compound String": "Cc1cccc2cc([C@H](C)Nc3nc(N)ncc3Cl)n(-c3ccccc3)c(=O)c12", "Target Or Test System": "PIK3CG (human) (UniProt P48736)", "pIC50": "> 7.00"}
{"Compound String": "CN1CCN(c2cnc3ccc(-c4ccc5nc(N)oc5c4)cn23)CC1", "Target Or Test System": "PIK3CG (human) (UniProt P48736)", "pIC50": "< 5.00"}
{"Compound String": "C[C@H](Nc1ncnc2scnc12)c1cc2cccc(Cl)c2c(C(=O)NC2CCCC2)n1", "Target Or Test System": "PIK3CG (human) (UniProt P48736)", "pIC50": "> 5.00"}

# evaluate next
Req: Which measured pIC50 value corresponds to "C[C@H](Nc1ncnc2[nH]cc(F)c12)c1cc2cccc(Cl)c2c(C(=O)N2CCOCC2)n1" ?
Resp: > 6.00

----------
# pIC50 against PIK3CG (human), merged from multiple literature sources
pIC50: −log10 of the molar value.

As a guide, the following entries are already answered.
{"Compound String": "C[C@H](NC(=O)c1cncc2cccnc12)c1cc2cccc(Cl)c2c(=O)n1-c1ccc(F)cc1", "Observed Result": "5.00 to 6.00"}
{"Compound String": "COc1cc(-c2csc3cc([C@H](C)NC(=O)c4c(N)nn5cccnc45)n(-c4ccccc4)c(=O)c23)ccn1", "Observed Result": "< 5.00"}

Need pIC50 for each of these compounds.
1. Cc1ccc2c(c1)C(=O)N(C)c1cnc(Nc3ccc(S(=O)(=O)N4CCC(O)CC4)cc3)nc1N2C
2. C[C@H](Nc1ncnc2[nH]cnc12)c1cc2cccc(Cl)c2c(CN2CCC(F)(F)C2)n1

Resp:
1: 7.39; 2: > 6.00

----------
Collected set of IC50 measured with PIK3CG (human) across studies.
Criterion: IC50 strictly under 0.3 µM. Met: true (1). Not met: false (0).

{"Compound": "CN(C)CCNC(=O)c1ccc(-c2ccnc3c2c(/C=C2\\Oc4cccc(O)c4C2=O)cn3C)cc1", "Qualitative Label": "true (1)"}
{"Compound": "Cc1cc(-c2cccc3cc(C4CCCN4c4ncnc(N)c4C#N)c(N(C)C)nc23)cn(C)c1=O (stereo not drawn)", "Qualitative Label": "true (1)"}
{"Compound": "CN(C)Cc1cccc(-c2ccnc3c2c(/C=C2\\Oc4cccc(O)c4C2=O)cn3C)c1", "Qualitative Label": "true (1)"}

Req: For "CC(C)N1CCC(Oc2nc([C@H](C)Nc3ncnc4[nH]cnc34)cc3cccc(-c4cnn(C)c4)c23)CC1" , is the recorded IC50 below the cut-off of 0.3 µM?
Resp: false (0)

Req: State whether 0.3 µM exceeds IC50 recorded for "Cn1cc(-c2nc(N3CCOCC3)c3nc(C(=O)N4CCC5(CC4)COC5)[nH]c3n2)cn1" .
Resp: false (0)

Req: Answer whether the compound "Cc1ccccc1-n1c(Cn2nc(-c3ccn[nH]3)c3c(N)ncnc32)cc2cccc(C)c2c1=O" has IC50 strictly less than 0.3 µM
Resp: true (1)

Req: Given "CNC(=O)c1ccc(Nc2nc(Nc3ccc(NC(=O)Nc4cccnc4)cc3)nc3c2cnn3C)cc1" , is recorded IC50 strictly lower than 0.3 µM?
Resp: true (1)

Req: For this compound, is IC50 lower than 0.3 µM? "CN1CCN(c2ccc(NC(=O)Nc3ccc(-c4nc(N5CCOCC5)c5ccn(CC(F)(F)F)c5n4)cc3)cc2)CC1"
Resp: true (1)

Req: Say whether its IC50 is strictly beneath 0.3 µM. Entry: "Cc1ncc(-c2cccc3nc([C@H](C)Nc4ncnc5ccc(C#N)cc45)n(-c4ccccc4)c(=O)c23)cn1"
Resp: true (1)

Req: I'd appreciate it if you could check whether "Cn1cc(/C=C2\Oc3ccc(NC(=O)NC4CCCCC4)cc3C2=O)c2c(N3CC4CCC(C3)O4)ccnc21" has IC50 smaller than 0.3 µM.
Resp: false (0)

Req: Dear reviewer, please state whether "CCOc1ncc(-c2cccc3cc([C@H](CC)Nc4ncnc5ccc(C#N)cc45)n(-c4ccccc4)c(=O)c23)cn1" has IC50 strictly beneath 0.3 µM.
Resp: false (0)

Req: Is IC50 strictly under 0.3 µM for the entry "Cc1ccccc1-n1c(Cn2nc(-c3ccc4nc(N)ccc4c3)c3c(N)ncnc32)cc2cccc(C)c2c1=O" ?
Resp: true (1)

Req: Say whether its IC50 is strictly beneath 0.3 µM. Entry: "CC[C@H](Nc1ncnc2ccc(C#N)cc12)c1cc2cccc(-c3cncnc3)c2c(=O)n1-c1ccccc1"
Resp: true (1)
